Parameter: inhibition. Scope: all listed entries.
# ASSAY SYSTEM: Beta-3 adrenergic receptor (Homo sapiens) (UniProt P13945)
# Sequence (P13945 whole entry, looked up): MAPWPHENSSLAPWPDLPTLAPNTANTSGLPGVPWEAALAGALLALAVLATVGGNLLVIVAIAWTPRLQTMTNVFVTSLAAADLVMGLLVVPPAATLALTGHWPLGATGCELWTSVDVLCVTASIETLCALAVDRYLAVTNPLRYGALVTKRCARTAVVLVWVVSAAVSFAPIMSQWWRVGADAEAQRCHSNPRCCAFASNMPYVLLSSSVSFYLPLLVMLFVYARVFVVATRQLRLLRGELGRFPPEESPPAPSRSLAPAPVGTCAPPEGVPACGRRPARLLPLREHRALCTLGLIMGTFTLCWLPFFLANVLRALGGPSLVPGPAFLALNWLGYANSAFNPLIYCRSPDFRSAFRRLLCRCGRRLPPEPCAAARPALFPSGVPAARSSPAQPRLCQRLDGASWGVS
# CONDITION NOTES: Compound concentration 10 µM
# Description: PDSP Primary Binding target: ADRB3 - Compounds are tested at 10 uM concentration, plate are incubated at room temperature in the dark for 90 minutes. Reaction are stopped by vacuum filtration onto 0.3% polyethyleneimine soaked filter mats using Filtermate harvester. Scintilation cocktail is then melted onto microwave-dried filters on a hot plate and the radio activity is counted in Microbia counter.
Enter your answer as a number in %; do not include the unit.

The following compounds have reported results that may help.
- O=C(O)C1CN(Cc2ccc(OCc3ccc(Cl)c(Cl)c3)cc2)C1: -2.67
- N#Cc1cccc(C(=O)Nc2cc(-c3ccccc3)nn2-c2ccccc2)c1: -5.54
- Cc1nnn(-c2ccc(-c3ccc(C4(C(=O)O)CC4)cc3)cc2)c1NC(=O)O[C@H](C)c1ccccc1: 24.9

Query CN(C(=O)Cc1ccc(Cl)c(Cl)c1)C(CN1CCCC1)c1cccc(OCC(=O)O)c1 (stereo not given) on Beta-3 adrenergic receptor (Homo sapiens) (UniProt P13945); inhibition returned: -9.83

Query `C[C@H](NC[C@H](O)CP(=O)(O)CC1CCCCC1)c1ccc(Cl)c(Cl)c1` on Beta-3 adrenergic receptor (Homo sapiens) (UniProt P13945); inhibition returned: 38.3

* * *

# ASSAY SYSTEM: Alpha-1D adrenergic receptor (Homo sapiens) (UniProt P25100)
# Sequence (P25100 whole entry): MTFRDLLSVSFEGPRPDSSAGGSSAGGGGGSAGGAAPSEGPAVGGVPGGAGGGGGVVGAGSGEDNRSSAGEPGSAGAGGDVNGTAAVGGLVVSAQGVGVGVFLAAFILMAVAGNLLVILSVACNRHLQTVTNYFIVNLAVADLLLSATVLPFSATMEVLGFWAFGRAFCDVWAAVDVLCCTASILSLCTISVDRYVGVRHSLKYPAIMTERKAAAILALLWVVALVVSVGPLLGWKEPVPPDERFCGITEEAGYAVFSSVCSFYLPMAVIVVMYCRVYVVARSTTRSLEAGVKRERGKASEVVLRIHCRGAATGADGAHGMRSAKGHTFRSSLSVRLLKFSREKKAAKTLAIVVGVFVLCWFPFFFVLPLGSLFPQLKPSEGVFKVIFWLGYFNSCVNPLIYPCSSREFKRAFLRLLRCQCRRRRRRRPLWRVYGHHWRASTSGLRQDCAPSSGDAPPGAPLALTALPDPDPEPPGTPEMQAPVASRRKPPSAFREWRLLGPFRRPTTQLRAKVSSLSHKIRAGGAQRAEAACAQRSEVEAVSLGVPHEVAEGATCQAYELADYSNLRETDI
# CONDITION NOTES: Compound concentration 10 µM
# Description: PDSP Primary Binding target: ADRA1D - Compounds are tested at 10 uM concentration, plate are incubated at room temperature in the dark for 90 minutes. Reaction are stopped by vacuum filtration onto 0.3% polyethyleneimine soaked filter mats using Filtermate harvester. Scintilation cocktail is then melted onto microwave-dried filters on a hot plate and the radio activity is counted in Microbia counter.
MEASURED ATTRIBUTE: inhibition (%)
Enter your answer as a number in %; do not include the unit.

The following compounds have reported results that may help.
* CN(C)C(=O)N[C@H]1CC[C@H](CCN2CCN(c3cccc(Cl)c3Cl)CC2)CC1 | 89.4
* N#Cc1ccc(NC(=O)Nc2ccccc2Br)c2nn[nH]c12 | -7.75
* COc1ccc2cc(S(=O)(=O)N[C@H](CC(=O)N[C@H](Cc3ccc(CN4[C@H](C)CCC[C@@H]4C)cc3)C(=O)N(C)C(C)C)c3ccc4c(c3)OCO4)ccc2c1 | 15.9
* FC(F)(F)c1c(N2CCC(c3ccccc3)CC2)ccn2c(CC3CC3)nnc12 | -3.82

Documented inhibition of `CCCCCCCCCCCCC/C=C/[C@@H](O)[C@@H](N)COP(=O)(O)O` : 9.46

Documented inhibition of `COc1cccc([C@@H](C)NCCCc2ccccc2Cl)c1` : 20.3

Documented inhibition of `c1nc(CC2CCNCC2)c[nH]1` : 7.26

Documented inhibition of `NC[C@@H]1O[C@H](C23CC4CC(CC(C4)C2)C3)Cc2c1ccc(O)c2O` : 3.98

Documented inhibition of `CNC[C@H](O)c1cccc(O)c1` : 26.6

Documented inhibition of `Cc1c(P(=S)(c2ccccc2)c2ccccc2)n2ccccc2[n+]1C/C=C/c1ccccc1` : 8.81

* * *

# ASSAY SYSTEM: Translocator protein (Homo sapiens) (UniProt P30536)
# Sequence (P30536 whole entry): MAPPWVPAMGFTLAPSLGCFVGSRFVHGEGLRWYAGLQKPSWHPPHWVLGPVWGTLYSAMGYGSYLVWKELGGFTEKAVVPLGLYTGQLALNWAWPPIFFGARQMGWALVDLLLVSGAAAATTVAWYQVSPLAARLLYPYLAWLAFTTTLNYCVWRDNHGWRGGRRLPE
# CONDITION NOTES: Compound concentration 10 µM; call rule not given here
Thanks in advance; please answer with one of these: 1 (active), -1 (inactive)

Worked set:
- COc1ccc(NC(=O)c2ccc(-c3ccc(-c4noc(C)n4)cc3C)cc2)cc1OCCN(C)C: -1
- COc1ccc2cc(S(=O)(=O)N[C@H](CC(=O)N[C@H](Cc3ccc(CN4[C@H](C)CCC[C@@H]4C)cc3)C(=O)N(C)C(C)C)c3ccc4c(c3)OCO4)ccc2c1: -1
- COc1ccnc(N2CCC3(CCCN(Cc4c[nH]c5ccccc45)C3=O)CC2)n1: 1

QUERY: How was `CN(C)C(=O)C(CCN1CCC(O)(c2ccc(Cl)cc2)CC1)(c1ccccc1)c1ccccc1` classified in this test?
RESULT: -1

QUERY: How was `Cc1nnn(-c2ccc(-c3ccc(C4(C(=O)O)CC4)cc3)cc2)c1NC(=O)O[C@H](C)c1ccccc1` classified in this test?
RESULT: -1

QUERY: How was `CCCCCNC(=O)NS(=O)(=O)c1cc([N+](=O)[O-])ccc1NC1CCCCC1` classified in this test?
RESULT: -1

QUERY: How was `CN(C)S(=O)(=O)c1ccc(NC(=S)N2CCC(C(O)(c3ccccc3)c3ccccc3)CC2)cc1` classified in this test?
RESULT: 1

QUERY: How was `OC1(c2ccc(Cl)cc2)CCN(Cc2c[nH]c3ccccc23)CC1` classified in this test?
RESULT: -1

QUERY: How was CC(C)(C(=O)O)c1ccc(C(O)CCCN2CCC(C(O)(c3ccccc3)c3ccccc3)CC2)cc1 (stereo not drawn) classified in this test?
RESULT: -1

QUERY: How was `CCCNS(=O)(=O)Nc1ncnc(OCCOc2ncc(Br)cn2)c1-c1ccc(Br)cc1` classified in this test?
RESULT: 1

QUERY: How was `COC(=O)C1=C(C)NC(C)=C(C(=O)OCCCN2CCC(c3ccccc3)(c3ccccc3)CC2)[C@H]1c1cccc([N+](=O)[O-])c1` classified in this test?
RESULT: 1

QUERY: How was `CCCn1c(=O)c2nc(C34CC5CC(CC3C5)C4)[nH]c2n(CCC)c1=O` classified in this test?
RESULT: -1

QUERY: How was `Cc1c(C2=CCN(C(=O)N(C)C(C)C)CC2)nnn1-c1cccnc1F` classified in this test?
RESULT: -1

QUERY: How was `O=C(O)CC/C=C\C[C@@H]1CO[C@H](c2ccccc2Cl)O[C@@H]1c1ccccc1O` classified in this test?
RESULT: -1

* * *

# ASSAY SYSTEM: D(1A) dopamine receptor (Homo sapiens)
# CONDITION NOTES: Compound concentration 10 µM; call rule not given here
Thanks in advance; please answer with one of these: active, inactive

Worked set:
* S=C(NCCCc1c[nH]cn1)NCCCN(Cc1ccc(Cl)c(Cl)c1)c1ccc(Br)cn1 | active
* O=C(O)C1CN(Cc2ccc(-c3nc4cc(Cc5ccccc5F)ccc4s3)c(F)c2)C1 | inactive
* OCc1cc(C(O)CNCCCCCCOCCCCc2ccccc2)ccc1O (centres undefined) | inactive
* C[C@@H](N)Cc1c[nH]cn1 | inactive
* COc1cc2nc(N3CCN(C(=O)c4ccco4)CC3)nc(N)c2cc1OC | inactive

QUERY: How was `C=CCN1C[C@H](C)N([C@H](c2ccc(C(=O)N(CC)CC)cc2)c2cccc(O)c2)C[C@H]1C` classified in this test?
RESULT: inactive

QUERY: How was `N#Cc1ccc(NC(=O)Nc2ccccc2Br)c2nn[nH]c12` classified in this test?
RESULT: inactive

* * *

# ASSAY SYSTEM: Alpha-1A adrenergic receptor (Homo sapiens)
# CONDITION NOTES: Compound concentration 10 µM
# Description: PDSP Primary Binding target: ADRA1A - Compounds are tested at 10 uM concentration, plate are incubated at room temperature in the dark for 90 minutes. Reaction are stopped by vacuum filtration onto 0.3% polyethyleneimine soaked filter mats using Filtermate harvester. Scintilation cocktail is then melted onto microwave-dried filters on a hot plate and the radio activity is counted in Microbia counter.
// False strictly below 30% in inhibition; True otherwise

- Cc1cccc(NC(=O)N[C@@H]2N=C(c3ccccc3)c3ccccc3N(C)C2=O)c1: False
- N#Cc1c[nH]c2c(C(=O)N3CCN(CCc4ccc(F)cc4)CC3)cccc12: False
- NCCc1c[nH]c2ccc(C(N)=O)cc12: False
- CCC(=O)NCC[C@@H]1CCc2ccc3c(c21)CCO3: False

QUERY: Please tell me: is the compound `CCOC(=O)c1cc(C#N)c(N2CCC(C(=O)NS(=O)(=O)Cc3ccccc3)CC2)nc1C` at or over 30% in terms of inhibition?
RESULT: True

QUERY: Please tell me: is the compound `C[C@H](Cc1cc2c(c(C(N)=O)c1)N(CCCO)CC2)NCCOc1ccccc1OCC(F)(F)F` at or over 30% in terms of inhibition?
RESULT: True

QUERY: Please tell me: is the compound `NC(=O)[C@@H]1CCCN1C(=O)[C@H](Cc1c[nH]cn1)NC(=O)[C@@H]1CCC(=O)N1` at or over 30% in terms of inhibition?
RESULT: False

QUERY: Please tell me: is the compound `O=c1ccn([C@@H]2O[C@H](COP(=O)(O)OP(=O)(O)O)[C@@H](O)[C@H]2O)c(=O)[nH]1` at or over 30% in terms of inhibition?
RESULT: False

QUERY: Please tell me: is the compound `Cc1cc(C)c(N)c(C#Cc2cccc(F)c2)n1` at or over 30% in terms of inhibition?
RESULT: False

* * *

# ASSAY SYSTEM: Translocator protein (Homo sapiens)
# CONDITION NOTES: Compound concentration 10 µM; call rule not given here
Thanks in advance; please answer with one of these: yes = active, no = inactive

Worked set:
* N#Cc1ccc(NC(=O)Nc2ccccc2Br)c2nn[nH]c12 | yes
* COc1ccc(/C=C/CCCCOc2ccc(C(=O)c3cccc(C(=O)O)c3)cc2CCC(=O)O)cc1 | no
* COc1cccc(-c2c(C)n(Cc3c(F)cccc3C(F)(F)F)c(=O)n(C[C@H](NCCCC(=O)O)c3ccccc3)c2=O)c1F | no

QUERY: How was `Cc1cc(C(=O)N2Cc3cnn(C)c3Nc3ccccc32)ccc1CNC(=O)N1CCC[C@H]1C(=S)N1CCCN(C)CC1` classified in this test?
RESULT: no

* * *

# ASSAY SYSTEM: Beta-1 adrenergic receptor (Homo sapiens) (UniProt P08588)
# Sequence (P08588 whole entry, looked up): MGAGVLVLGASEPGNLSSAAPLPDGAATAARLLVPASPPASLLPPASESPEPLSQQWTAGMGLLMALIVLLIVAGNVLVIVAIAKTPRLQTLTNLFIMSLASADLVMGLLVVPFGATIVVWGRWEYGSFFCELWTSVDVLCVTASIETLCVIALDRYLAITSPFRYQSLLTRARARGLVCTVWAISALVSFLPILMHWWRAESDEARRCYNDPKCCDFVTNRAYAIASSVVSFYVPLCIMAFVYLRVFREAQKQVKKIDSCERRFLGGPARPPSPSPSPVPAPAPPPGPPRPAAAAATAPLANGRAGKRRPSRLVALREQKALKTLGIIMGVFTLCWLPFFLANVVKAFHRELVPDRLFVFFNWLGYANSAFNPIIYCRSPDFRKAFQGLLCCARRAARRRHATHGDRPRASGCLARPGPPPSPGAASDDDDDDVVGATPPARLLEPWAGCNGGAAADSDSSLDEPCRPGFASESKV
# CONDITION NOTES: Compound concentration 10 µM
# Description: PDSP Primary Binding target: ADRB1 - Compounds are tested at 10 uM concentration, plate are incubated at room temperature in the dark for 90 minutes. Reaction are stopped by vacuum filtration onto 0.3% polyethyleneimine soaked filter mats using Filtermate harvester. Scintilation cocktail is then melted onto microwave-dried filters on a hot plate and the radio activity is counted in Microbia counter.
// 0 (no) strictly below 20% in inhibition; 1 (yes) otherwise

Worked set:
- CCCSc1nc(N[C@@H]2C[C@H]2c2ccc(F)c(F)c2)c2nnn([C@@H]3C[C@H](OCCO)[C@@H](O)[C@H]3O)c2n1: 0 (no)
- COC1CCN(c2cccc(-c3cc(NC(C)=O)nc(-n4nc(C)cc4C)n3)n2)CC1: 1 (yes)
- COc1ccc(NC(=O)c2ccc(-c3ccc(-c4noc(C)n4)cc3C)cc2)cc1OCCN(C)C: 0 (no)

QUERY: Please tell me: is the molecule `CCc1ccc(OCc2ccccc2C(=O)Nc2ccc3nc(C)cc(N)c3c2)cc1` at or over 20% in terms of inhibition?
RESULT: 0 (no)

QUERY: Please tell me: is the molecule CN1C2CCC1CC(OC(c1ccc(F)cc1)c1ccc(F)cc1)C2 (stereo unspecified) at or over 20% in terms of inhibition?
RESULT: 1 (yes)

QUERY: Please tell me: is the molecule `Nc1nc(NCCc2ccc(O)cc2)nc2nc(-c3ccco3)nn12` at or over 20% in terms of inhibition?
RESULT: 1 (yes)

QUERY: Please tell me: is the molecule `CCN(CC)CCCCC1CCN(CC(=O)N2c3ccccc3C(=O)Nc3cccnc32)CC1` at or over 20% in terms of inhibition?
RESULT: 0 (no)

QUERY: Please tell me: is the molecule `CNC[C@H](O)c1ccc(O)c(O)c1` at or over 20% in terms of inhibition?
RESULT: 1 (yes)
